# ASSAY_EXPLANATION: Dissociation constant, pKa of the compound by titration method
# Format: physicochemical
METRIC: pKa
The answer should be a number; do not append a unit.

Example results:
| COMPOUND | pKa |
| --- | --- |
| CCOP(=O)(SC(C)CC)N1C(=O)CCC1=O (centres undefined) | 9.6 |
| CCOP(=O)(SC(C)CC)N1CCSC1=O (centres undefined) [FOSTHIAZATE] | 11.6 |
| CCOP(=O)(SC(C)CC)N1OCCC1=O (centres undefined) | 10.5 |

Attention now shifts to the item below.
[ask] Please look up its pKa: CCOP(=O)(SC(C)CC)N1CCOC1=O (centres undefined)
[reply] 11.8
